- testSummary: Turbidimetric aqueous solubility
- Type: physicochemical
- statedConditions: aqueous buffer, kinetic from dmso stock, 0.01 M phosphate buffered saline pH 7.4, 1% DMSO, 37° C.
experimentalReadout: solubility at 2 h (µM)

| molecule | solubility at 2 h [µM] |
| --- | --- |
| CC1(C)CCC(C)(C)c2cc(C#Cc3ccc(C(=O)O)cc3F)ccc21 | 20 |

[a] CC1(C)CCC(C)(C)c2cc(C#Cc3ccc(C(=O)O)nc3)ccc21
[b] CC1(C)CCC(C)(C)c2cc(C#Cc3ccc(C(=O)O)cc3)ccc21 [EC23, reference compound]
**Query** For the pair a and b , which entry has the numerically smaller recorded solubility at 2 h? Returns: label corresponding to the selected item.
**Result** b

Where do these numbers come from? They come from patent US12344587B2.
